System: Myo5 SH3 domain
Test Details: SPOT analysis of cellulose-bound peptides (WISE), Myo5 SH3 domain (Dataset S4)
Format: binding, Saccharomyces cerevisiae
Condition Label: SPOT analysis of membrane-synthesized peptides probed with Myo5 SH3 domain; normalized value
The sequences listed here are annotated with their The normalized value in BLU units (SPOT analysis, Myo5 SH3).
Returns: string containing the number followed by the unit.

Here is how some sequences turned out for The normalized value in BLU units (SPOT analysis, Myo5 SH3).
> print(dat)
   entry.sequence  reported.value
1  SFIRKRAPTPPAPS       878.2 BLU
2  FEYSKYRPLTPSSE       143.0 BLU
3  FQPQRTAPKPPISA     88304.9 BLU
4  RLVNKLLPPHPFAD       289.2 BLU

Exam item: May I ask what The normalized value in BLU units (SPOT analysis, Myo5 SH3) has been recorded for TTKHKAPPPPPPTA ?
Marked response: 1684.9 BLU

Exam item: May I ask what The normalized value in BLU units (SPOT analysis, Myo5 SH3) has been recorded for EIKDRDQPAVPPSP ?
Marked response: 108.1 BLU

---

Tested on: Myo5 SH3 domain
Test Details: SPOT analysis of cellulose-bound peptides (WISE), Myo5 SH3 domain (Dataset S4)
Format: binding, Saccharomyces cerevisiae
Condition Label: SPOT analysis of membrane-synthesized peptides probed with Myo5 SH3 domain; normalized value
Entry flag: Yes if The normalized value in BLU units (SPOT analysis, Myo5 SH3) reaches 300 BLU; No if it does not.

Answered examples (3):
> print(dat)
   entry.sequence  category
1  TTRKKKDPNAPKRA        No
2  KKHDKLYPKYPSVK       Yes
3  AKVNKCPPDHPYIQ        No

Exam item: Quick check, The normalized value in BLU units (SPOT analysis, Myo5 SH3) >= 300 BLU? VVNEKEVPAEPETQ
Marked response: No

Exam item: Quick check, The normalized value in BLU units (SPOT analysis, Myo5 SH3) >= 300 BLU? LAGIRLVPVLPILL
Marked response: No

Exam item: Quick check, The normalized value in BLU units (SPOT analysis, Myo5 SH3) >= 300 BLU? LLEERNNPDIPVDK
Marked response: Yes

Exam item: Quick check, The normalized value in BLU units (SPOT analysis, Myo5 SH3) >= 300 BLU? TDTTKVTPIVPVPI
Marked response: No

Exam item: Quick check, The normalized value in BLU units (SPOT analysis, Myo5 SH3) >= 300 BLU? ETGVRYGPEFPLCT
Marked response: No

---

Test system: Myo5 SH3 domain
Test Details: SPOT analysis of cellulose-bound peptides (WISE), Myo5 SH3 domain (Dataset S4)
Type: binding, Saccharomyces cerevisiae
Condition Label: SPOT analysis of membrane-bound peptides, Myo5 SH3 domain; normalized value (see methods)
Category key, based on recorded The normalized value in BLU units: low range = under 100 BLU, mid range = from 100 BLU up to 300 BLU, high range = 300 BLU and over

> print(dat)
   entry.sequence    category
1  EEQVKCNPNRPIYW   mid range
2  KLPKKFPPPTPLLE  high range
3  DLKKKYAPDPPITH   mid range
4  HRLFKCTPGLPKLW   mid range
5  DKFIKLIPMRPVLI   mid range
6  AGMAKTKPDVPLSY   mid range

Exam item: Band for EKVFRGDPEHPAIS ?
Marked response: low range

Exam item: Band for NEFAKFAPDLPVLK ?
Marked response: mid range

Exam item: Band for EKEAKSEPQQPEDN ?
Marked response: mid range

Exam item: Band for IAVTRSIPRGPDKN ?
Marked response: mid range

Exam item: Band for KKIAKGDPKIPMQN ?
Marked response: high range

Exam item: Band for VPIDKKSPFYPGLD ?
Marked response: mid range

Exam item: Band for KTGRKTFPFLPYQI ?
Marked response: high range

Exam item: Band for IAKLKRKPVVPRLK ?
Marked response: high range

Exam item: Band for DIPRRYIPITPADL ?
Marked response: low range

Exam item: Band for HFNTKKIPELPSQF ?
Marked response: high range

Exam item: Band for QSKTKPLPVEPASP ?
Marked response: mid range

Exam item: Band for MDMDRNVPLAPNLN ?
Marked response: low range

---

Test system: Myo5 SH3 domain
Test Details: SPOT analysis of cellulose-bound peptides (WISE), Myo5 SH3 domain (Dataset S4)
Format: binding, Saccharomyces cerevisiae
Condition Label: SPOT analysis of membrane-synthesized peptides probed with Myo5 SH3 domain; normalized value
Test Readout: The normalized value in BLU units (SPOT analysis, Myo5 SH3) (BLU)
Respond with the bare value in BLU.

Here is how some sequences turned out for The normalized value in BLU units (SPOT analysis, Myo5 SH3).
> print(dat)
   entry.sequence  target.or.test.system  scale.unit  reported.value
1  LAYERPLPDLPSTI        Myo5 SH3 domain         BLU           131.9
2  NPMQKPVPFVPVLD        Myo5 SH3 domain         BLU           420.2

Now examine the next entry.
Exam item: May I ask what The normalized value in BLU units (SPOT analysis, Myo5 SH3) has been recorded for ILKNRMNPEKPYEL ?
Marked response: 321.6
